Entry source: ChEMBL document CHEMBL5104216

# METHOD_SUMMARY: Redox activity of compound assessed as redox index at 100 uM in presence of 100 uM TCEP measured by H2DCFDA assay
# Type: physicochemical
Would you please tag the item MET when its Activity_index is 1 or above, and NOT MET when it is below?

{"columns": ["RECORD_SMILES", "CATEGORY"],
 "data": [
  ["CC(C)(C)c1csc(N)n1", "NOT MET"],
  ["Fc1ccc(-c2csc(Br)n2)cc1F", "NOT MET"],
  ["COC(=O)C(=O)Nc1ncc(Br)s1", "NOT MET"],
  ["Nc1nc(C(=O)O)cs1", "MET"],
  ["Nc1nnc(C(F)(F)F)s1", "NOT MET"],
  ["NCCc1cn(Cc2cscn2)nn1", "MET"],
  ["Nc1ncc(Br)s1", "MET"],
  ["Cc1nc(Br)sc1C(=O)O", "MET"],
  ["N#Cc1cnc(NC(=O)C(=O)O)s1", "NOT MET"],
  ["Cc1cnc(Br)s1", "NOT MET"],
  ["Cc1nc(C(=O)O)cs1", "MET"],
  ["CCOC(=O)c1csc(Br)n1", "NOT MET"],
  ["Cc1cnc(N)s1", "MET"],
  ["O=C(O)c1csc(-c2ccncc2)n1", "MET"],
  ["Nc1nnc(C2CC2)s1", "MET"],
  ["O=C(O)c1csc(Nc2cccc3ncccc23)n1", "MET"],
  ["CCOC(=O)c1cnc(Br)s1", "MET"],
  ["N#Cc1cnc(N)s1", "NOT MET"],
  ["CC(=O)c1nc(C)cs1", "NOT MET"]
]}
